- Protocol description: Elimination rate constant mouse brain at 10 nCi/ml
Measured quantity: k el (s⁻¹)

| Compound | Unit text | k el |
| --- | --- | --- |
| CN(Cc1cnc2nc(N)nc(N)c2n1)c1ccc(C(=O)N[C@@H](CCC(=O)O)C(=O)O)cc1 [METHOTREXATE] | s⁻¹ | 0.000397 |
| Nc1nc2[nH]cc(CCc3ccc(C(=O)N[C@@H](CCC(=O)O)C(=O)O)cc3)c2c(=O)[nH]1 | s⁻¹ | 0.000297 |
